Test system: SNB-75
assay-method-text: NCI tumour cell line growth inhibition, 48 h
The source made the active and inactive calls. No stated cut-off is given here; in the data, active = GI50 up to about 1.1 µM and inactive = higher. Peptide text beside a SMILES is read from it. * marks the point of attachment. Cbz = O=C(OCc1ccccc1)*
Outcome codes: active, inactive

compound	target-desc	qualitative-label
COc1ccc(C2CCc3c(cnc4nc(N)nc(N)c34)C2)cc1 (stereo unspecified)	SNB-75	inactive
COc1ccc(N[S+]([O-])c2ccc(-c3ccccc3)cc2)cc1 (stereo unspecified)	SNB-75	inactive
O=C1/C(=C/c2ccccc2)CCc2ccccc21	SNB-75	inactive
CCc1ccc(Nc2cc(=O)[nH]c(=S)n2C)cc1	SNB-75	inactive
S=C1SC(=N\c2ccccc2)/C(=N/c2ccccc2)N1c1ccccc1	SNB-75	inactive
O=C(O)CCC(NC(=O)OCc1ccccc1)C(=O)NC(Cc1c[nH]cn1)C(=O)O (stereo not drawn) (Cbz-Glu-His-OH; configuration not given here)	SNB-75	inactive
Cc1c2cccc-2ccc2c3ccccc3n(C(=O)c3ccc(Cl)cc3)c12	SNB-75	inactive
c1ccc2cc3c(NC4=NCCO4)cccc3cc2c1	SNB-75	inactive
Cc1cc(Nc2ccc(S(=O)(=O)O)cc2)c2ccccc2n1	SNB-75	inactive
CC1OC(O[C@H]2CC[C@]3(C)[C@H]4CC=C5[C@@H]6[C@@H](C)[C@H](C)CC[C@]6(C(=O)OC6OC(CO)C(O)C(O)C6O)CC[C@@]5(C(=O)O)[C@]4(C)CC[C@H]3C2(C)C)C(O)C(O)C1O (stereo partly specified)	SNB-75	inactive
COc1ccc(C(SCC(N)C(=O)O)(c2ccc(OC)cc2)c2ccc(OC)cc2)cc1 (stereo unspecified)	SNB-75	inactive
CC1(C)OC[C@@H](/C=C\CCO[Si](c2ccccc2)(c2ccccc2)C(C)(C)C)N1C(=O)c1ccccc1	SNB-75	inactive
O=C(c1ccccc1)c1ccc(COc2ccc(C(c3c(O)c4ccccc4oc3=O)c3c(O)c4ccccc4oc3=O)cc2)cc1	SNB-75	inactive
OCCCCn1cnc2c(O)ncnc21	SNB-75	inactive
CCOc1ccc(NC(=O)C(=O)NO)cc1	SNB-75	inactive
CC(CO)[C@H]1OC(=O)C=C2[C@@]13O[C@@H]3[C@H]1OC(=O)[C@@]3(C)[C@H]4O[C@H]4C[C@@]2(C)[C@@H]13 (stereo partly specified)	SNB-75	active
COCCNC(=O)C1C(=O)N(CCOC)C(=O)/C1=N/N (stereo unspecified)	SNB-75	inactive
O=S(=O)(O)c1ccc2cccc(/N=N\c3c(O)ccc4ccccc34)c2c1	SNB-75	inactive
CNS(=O)(=O)c1ccccc1C(=N)c1ccccc1	SNB-75	inactive
COC(=O)c1ccc(/C=C2\N=C(C)OC2=O)cc1	SNB-75	inactive
C=C(C)[C@@H]1CC=C(CO)CC1 [PERILLYL ALCOHOL]	SNB-75	inactive
N#Cc1ccccc1NC(=O)/C(=N\NC(=O)c1ccncc1)C(c1cnc2ccc([N+](=O)[O-])cc2n1)[N+](=O)[O-] (stereo unspecified)	SNB-75	inactive
CCOC(=O)c1c(N2CCOCC2)[nH]c(=O)c(C(c2ccc(N(C)C)cc2)c2c(O)c(C(=O)OCC)c(N3CCOCC3)[nH]c2=O)c1O	SNB-75	inactive
c1ccc(/C(=N/Nc2ccccn2)c2cccnn2)cc1	SNB-75	inactive
Cc1cc2c(cc1Cl)SC(NS(=O)(=O)c1ccc(Cl)cc1)=NS2(=O)=O	SNB-75	inactive
O=c1[nH]nc2ccccc2c1Cl	SNB-75	inactive
O/N=C(/C(Cl)=C(Cl)Cl)C(Cl)Cl	SNB-75	inactive
CCCCCCCC(=O)N/N=C/c1ccc(Sc2nccn2C)c([N+](=O)[O-])c1	SNB-75	inactive
CC(=O)/C=C1\Nc2sc(C)c(C)c2C(=O)S1	SNB-75	inactive
Nc1nc(N)c2ncn(-c3ccc(Cl)cc3)c2n1	SNB-75	inactive
Cc1ccccc1NC(=O)CC(=O)n1nc(-c2ccccc2)c(/N=N/c2ccc([N+](=O)[O-])cc2)c1-c1ccccc1	SNB-75	inactive
COC1=CC(=C(C#N)/C(=N\c2ccccc2)SC)C=C(OC)C1=O	SNB-75	inactive
Nc1n[nH]c(CCCCCCCc2nnc(N)[nH]2)n1	SNB-75	inactive
CCOC(=O)CCC(NC(=O)c1ccc(Nc2nc3cc(C(F)(F)F)ccc3nc2-c2ccccc2)cc1)C(=O)OCC (stereo unspecified)	SNB-75	inactive
COc1ccc(/C=C2/C[N+](C)(C)C/C(=C/c3ccc(OC)cc3)C2=O)cc1	SNB-75	inactive
CN(c1ccccc1)c1cc2ccccc2nn1	SNB-75	inactive
N#C/C(=C\c1cc(Cl)cc(Cl)c1)c1ccccn1	SNB-75	inactive
O=C1CCN(CCC(F)(F)C(F)(F)C(F)(F)C(F)(F)F)C(=S)N1	SNB-75	inactive
Clc1ccccc1C1=NN(c2ccccc2)C2c3ccccc3OCC12 (stereo unspecified)	SNB-75	inactive
C1=CC2C=CC(C=C1)P2c1ccccc1 (stereo unspecified)	SNB-75	inactive
O=C(Nc1ccccc1Br)c1cccc([N+](=O)[O-])c1O	SNB-75	inactive
